The values you see were collected from paper PMC10247784.

Molecular target: mouse Tas2r105 (Mus musculus)
Construct: expressed in transfected cells; host or cells: HEK293T-Gα16gust44
Sequence (Q9JKT4 1-300): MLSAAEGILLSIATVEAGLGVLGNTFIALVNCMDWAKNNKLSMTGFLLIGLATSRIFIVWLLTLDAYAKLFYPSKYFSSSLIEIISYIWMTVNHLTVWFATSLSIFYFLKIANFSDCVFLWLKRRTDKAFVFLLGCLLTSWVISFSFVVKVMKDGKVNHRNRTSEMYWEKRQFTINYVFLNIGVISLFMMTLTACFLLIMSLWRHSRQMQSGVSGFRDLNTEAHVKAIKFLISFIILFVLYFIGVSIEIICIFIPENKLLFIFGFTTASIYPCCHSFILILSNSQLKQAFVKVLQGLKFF
Experiment: Calcium imaging assay (FLIPR), HEK293T-Gα16gust44 cells transfected with mouse Tas2r105
Assay type: cell-based
Conditions: Time 86.781 s
I'd appreciate it if you could supply RLU values for the items below.
Report only the number, with the unit RLU understood.

# input RLU for `C[C@H](CCC(=O)O)[C@H]1CC[C@H]2[C@@H]3CC[C@@H]4C[C@H](O)CC[C@]4(C)[C@H]3CC[C@]12C` ?
# output 203.204

# input RLU for `C[C@H](CCC(=O)O)[C@H]1CC[C@H]2[C@@H]3[C@H](O)C[C@@H]4C[C@H](O)CC[C@]4(C)[C@H]3C[C@H](O)[C@]12C` ?
# output 549.947

# input RLU for `C[C@H](CCC(=O)NCC(=O)O)[C@H]1CC[C@H]2[C@@H]3[C@H](O)C[C@@H]4C[C@H](O)CC[C@]4(C)[C@H]3C[C@H](O)[C@]12C` ?
# output 528.828

# input RLU for `C[C@H](CCC(=O)O)[C@H]1CC[C@H]2[C@@H]3CC[C@@H]4C[C@H](O)CC[C@]4(C)[C@H]3C[C@H](O)[C@]12C` ?
# output 90.9377
